# PROCEDURE_DETAILS: PSAC antagonists in infected red cells, primary screen, cell-based, P. falciparum Indochina, OD700, 18 h (AID 1157)
# STATED_CONDITIONS: P. falciparum Indochina infected erythrocytes, osmotic lysis OD700, 18 h; higher = more signal, called active from +8 up or from −8 down
Quick rule for you: z-score at 0.4 or higher means met, lower means not met.

Assess whether reported z-score for CC[C@H]1C2=C3C(CC[C@H]4C(OCc5ccc(F)cc5C(F)(F)F)OC[C@](C)([C@@H]34)N(C(=O)OC(C)(C)C)C2)C(COC(C)=O)C1COC(C)=O (stereo not given in full) sits at 0.4 or higher.
not met

Dear colleague, could you confirm whether C=C1C(=O)C=C2CN(C(=O)c3ccccc3)[C@@](Cc3ccc(F)cc3)(C(=O)OC)[C@@H]12 has z-score at or above 0.4?
not met

Is the recorded value of z-score equal to or greater than 0.4 for this compound? C=C(/C=C\CNS(=O)(=O)c1ccc(C)cc1)[C@H](O)[C@H]1CCCN1S(=O)(=O)c1ccccc1[N+](=O)[O-]
met

Record O=C1c2ccccc2[C@](Cc2ccccc2I)(C(=O)NCCN2CCOCC2)[C@H](c2ccc(CO)cc2)N1Cc1ccccc1C(F)(F)F ; criterion: z-score no lower than 0.4. Met?
met

hey, is z-score for this one >= 0.4? COc1ccc([Si](C)(C)[C@@H]2[C@@H](CC(=O)N3Cc4ccccc4C[C@H]3CO)O[C@]3(C(=O)N(Cc4ccc(I)cc4)c4ccccc43)[C@H]2C)cc1
met

For this compound, is measured z-score 0.4 or higher? COc1ccc(C(O)C2C=CC3C(=O)N(c4ccccc4)C(=O)C3N2Nc2ccccc2F)c2ccccc12 (stereo not given)
met

Is z-score for O=C/C=C/c1ccc(-c2ccccc2)cc1 at or above 0.4?
not met

Check this compound for z-score at or above 0.4: COC(=O)[C@@]1(Cc2ccccc2)[C@H]2c3cc(C(=O)N(C)C)n(Cc4ccc(Cl)c(C(F)(F)F)c4)c3C[C@H]2CN1C(=O)c1ccccc1
met

Answer whether z-score of C=CC[C@]12N=C(c3ccc(OCCCO)cc3)O[C@H]1c1ccccc1N(CCC)C2=O is greater than or equal to 0.4.
met

Can CC(C)N1CC=CC23O[C@@H]4/C=C\CCCOC(=O)C4[C@H]2C(=O)N(C(C)CO)[C@@H]3C1=O (stereo not given in full) be said to have z-score at or above 0.4?
met

Form field: z-score at least 0.4? Entry: COCCOC(=O)N1C(=O)[C@@]2(c3cc(C#CCCO)ccc31)[C@H](c1ccc(O)cc1)N1[C@H](c3ccccc3)[C@H](c3ccccc3)OC(=O)[C@H]1[C@@H]2C(=O)NC[C@H](O)c1ccccc1
met

Check the entry CCN1C(=O)C2CC(=O)C3C(CN(S(=O)(=O)c4ccc(C)cc4)C3c3ccc(C)cc3)C2C1=O (stereo not given) : does z-score equal or exceed 0.4?
met

Is the recorded value of z-score equal to or greater than 0.4 for this compound? COc1ccc([Si](C)(C)[C@H]2[C@H](CC(=O)N(CCO)Cc3ccccc3)O[C@@]3(C(=O)N(c4ccccc4)c4ccccc43)[C@@H]2C)cc1
met

Kindly determine if z-score recorded for COC(=O)C[C@H]1O[C@]2(C(=O)N(C)c3ccccc32)[C@@H](C)[C@@H]1[Si](C)(C)c1ccccc1 is above or exactly 0.4.
not met

Quick check, z-score >= 0.4? CCCCC(=C=CC[C@@H](O)c1ccc(OCCO)cc1)CCO
met

Identify whether the reported z-score of the following compound is 0.4 or greater: CCCCN1CC=CC23O[C@@H]4/C=C\CCC(C)OC(=O)C4[C@H]2C(=O)N(CCO)[C@@H]3C1=O (stereo not given in full)
met

Has O=C1N(Cc2ccccc2)Cc2ccccc2C[C@@]12COC(c1ccc(OCCCO)cc1)=N2 a recorded z-score greater than or equal to 0.4?
met

Assess whether reported z-score for C=C[C@H](OC)[C@@H](O)c1ccc(OC)c(O)c1 sits at 0.4 or higher.
not met

Threshold query (z-score >= 0.4) on CC(C)c1ccc(NN2C(C(O)C(C)c3ccccc3)C=CC3C(=O)N(c4ccccc4)C(=O)C32)cc1 (stereo not given)
met

Exam item: decide whether the reported z-score for COCCCNC(=O)[C@]1(Cc2ccccc2N=[N+]=[N-])N=C(c2ccc(OCCCO)cc2)O[C@@H]1c1ccccc1 is at least 0.4.
met

State whether the measured z-score reaches 0.4, counting equality as reaching it, for CCCCCCc1nc(-c2ccc(OC)nc2)c(C)c2c1[Si](C(C)C)(C(C)C)OC2
not met

Can [N-]=[N+]=NCc1ccccc1C[C@@]1(C(=O)NCCN2CCOCC2)N=C(c2ccc(OCCCO)cc2)O[C@@H]1c1ccccc1 be said to have z-score at or above 0.4?
met

Is it the case that Cc1ccc(S[C@]2(C(=O)NCCN3CCOCC3)CC(=O)N(C(C)C)[C@@H]2c2ccc(CO)cc2I)cc1 has z-score reaching or exceeding 0.4?
not met

Textbook exercise: given the entry CC1C2C(CCCO)=CC(C3C(=O)N(C)C(=O)C23)N1Cc1cccc(OC(F)(F)F)c1 (stereo not given) , state whether its z-score is greater than or equal to 0.4.
met

Could you verify whether the entry COC(=O)[C@]1(Cc2ccccc2CN=[N+]=[N-])N=C(c2ccc(OCCCO)cc2)O[C@@H]1c1ccccc1N=[N+]=[N-] shows z-score of no less than 0.4?
met

Quick check: does C=CCNC(=O)[C@H]1[C@@H]2C(=O)O[C@@H](c3ccccc3)[C@@H](c3ccccc3)N2[C@@H](c2ccc(O)cc2)[C@]12C(=O)Nc1ccc(C#CCC(C(=O)OC)C(=O)OC)cc12 have z-score greater than or equal to 0.4?
met

z-score >= 0.4 for COc1ccc(NN2C(C(O)c3ccccc3)C=CC3C(=O)N(C4CCCCC4)C(=O)C32)cc1 (stereo not given) ?
met

Identify whether the reported z-score of the following compound is 0.4 or greater: Cc1ccc(S[C@]2(C(=O)NC(C)C)CC(=O)N(Cc3ccccc3)[C@@H]2c2ccc(CO)cc2I)cc1
not met

Does C=CCNC(=O)[C@H]1[C@@H]2C(=O)O[C@@H](c3ccccc3)[C@@H](c3ccccc3)N2[C@@H](c2ccc(O)cc2)[C@]12C(=O)N(C(=O)OCCOC)c1ccc(C#Cc3ccc(OC)cc3)cc12 have a reported z-score of at least 0.4?
not met
